- Test system: KM12 colon
- assay.procedure: NCI-60 one-dose screen, 48 h (100 = growth as untreated, 0 = no growth, -100 = all killed)
- cond: 10 µM unless noted
This is part of a sample that, as a whole, favours compounds with a hit. Of some 83,000 tested, about 20% had one in any assay.
result.type: growth (%)
API: value field is a number in %; no unit string.

Please report growth for the following compound: O=C1NC(=O)C(=Cc2cn(Cc3ccccn3)c3ccccc23)C(=O)N1
106

More entries:
Please report growth for the following compound: Cc1c2c(cc[n+]1Cc1ccccc1)c1ccc(OCC3CCCCC3)cc1n2CC1CCCCC1
-99.9

Please report growth for the following compound: CC(C)C1C2=C(NCCN1C(=O)Cc1ccccc1)C(C)(C)N(Cc1ccccc1)C2=O (stereo not given)
107

Please report growth for the following compound: COc1ccccc1-c1c(-c2ccc(Cl)cc2)c2cc3c(cc2[nH]c1=O)OCCO3
63.8

Please report growth for the following compound: CCN1C(=O)N(CC)C2C1NN=c1s/c(=C3\C(=O)Nc4ccccc43)c(=O)n12 (stereo not given)
15.1

Please report growth for the following compound: N#Cc1cc(-c2nc3ccccc3s2)c(=O)n(NS(=O)(=O)c2ccc(Cl)cc2)c1N
102

Please report growth for the following compound: CS(=O)(=O)OCCN(CCOS(C)(=O)=O)c1ccc(/C=N/Nc2ccc([N+](=O)[O-])cc2[N+](=O)[O-])cc1
99.6

Please report growth for the following compound: CC(C)CCSc1nc(NNC(N)=O)c(C#N)c(-c2ccccc2)n1
110

Please report growth for the following compound: CN(C)Cc1c(-c2ccccc2)[nH]c2ccccc12
96.7

Please report growth for the following compound: COc1ccc(C(=O)c2cc3c(N)c(C(=O)Nc4cccc5ccccc45)sc3nc2C)cc1
12.3

###

- Test system: MOLT-4 leukemia
- assay.procedure: NCI-60 one-dose screen, 48 h (100 = growth as untreated, 0 = no growth, -100 = all killed)
- cond: 10 µM unless noted
- Procedure: Growth inhibition of the MOLT-4 human tumor cell line is measured as a screen for anti-cancer activity. Cells are grown in 96 well plates and exposed to the test compound for 48 hours. Compounds are tested at a single concentration, which is 10^-5 M for most compounds. The reported endpoint is percent growth (GI% or GIPRCNT), where numbers from 0 - 100% represent growth inhibition, and numbers from -100% - 0 represent cell death. For example, a value of 40 represents 60% growth inhibition. […]
Compounds without any hit were thinned out: in the full panel of roughly 83,000, 20% have a hit.
Lab note: anything with growth below 30% is marked Fulfilled; values at 30% or higher are marked Not fulfilled.

Solved entries:
Could you please tell me whether growth recorded for Cc1ccc(C2CC(c3cccc(Nc4ccncc4)c3)=NN2c2cc(Cl)cc(Cl)c2)cc1 (stereo not drawn) is less than 30%?
Fulfilled

Could you please tell me whether growth recorded for COc1ccc(-c2cnc(N)nc2-c2ccc(OC)cc2O)cc1 is less than 30%?
Not fulfilled

Could you please tell me whether growth recorded for COc1cc(/C=N/NC(=O)c2ccccc2Nc2cccc(C(F)(F)F)c2)ccc1O is less than 30%?
Fulfilled

Could you please tell me whether growth recorded for NC(=O)c1cccc(-n2ccc3cc(NC(=O)Nc4cc(C(F)(F)F)cc(C(F)(F)F)c4)ccc32)n1 is less than 30%?
Fulfilled

More entries:
Could you please tell me whether growth recorded for FC(F)(F)c1cccc(Nc2ccccc2)c1 is less than 30%?
Not fulfilled

Could you please tell me whether growth recorded for CC1=CC[C@@H]2CC[C@]3(C)[C@H](CC[C@@H]4[C@@]5(C)CCCNC(C)(C)[C@@H]5CC[C@]43C)[C@H]2[C@@H]1C is less than 30%?
Fulfilled

Could you please tell me whether growth recorded for COc1ccc(C(=O)/C=C/c2ccc(OCc3ccccc3)c(OC)c2)cc1OC is less than 30%?
Not fulfilled
